The origin of these recorded values is paper PMC5376645.

Target: T1, human VEGF-A165 (VEGF homodimer with each monomer having 165 amino acid residues) (Homo sapiens, UniProt P15692-4, strain, biotin (site not stated; named for Supplementary Table 2 only))
T1 construct: also called hVEGF-A165; hVEGF; source: bought: Peprotech (catalogue number AF-100-20)
T1 sequence (P15692 whole entry, looked up, change not shown): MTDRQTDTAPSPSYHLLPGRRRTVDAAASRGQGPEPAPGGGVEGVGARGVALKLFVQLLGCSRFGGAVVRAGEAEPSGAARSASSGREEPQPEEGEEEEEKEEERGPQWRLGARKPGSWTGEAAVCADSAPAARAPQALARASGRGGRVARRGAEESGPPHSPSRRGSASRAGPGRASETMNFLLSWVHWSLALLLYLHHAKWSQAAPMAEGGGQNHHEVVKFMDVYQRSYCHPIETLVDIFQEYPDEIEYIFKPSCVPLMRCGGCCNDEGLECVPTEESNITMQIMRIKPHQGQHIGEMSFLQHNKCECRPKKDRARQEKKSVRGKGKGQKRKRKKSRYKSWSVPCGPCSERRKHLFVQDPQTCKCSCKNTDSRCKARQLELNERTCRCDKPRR
Test: SPR; Biacore as per the manufacturer's protocol; kinetic rate constants and affinity of the Fab constructs for biotinylated hVEGF-A165
Conditions: both partners purified
ASSAY_READOUT: Kd (pM)
Answers are plain numbers, in pM.

BINDER	Kd (pM)
LAVA1 (NVS24): NVS0 Fab with the LINK domain of human TSG6 fused to the C terminus of the heavy chain (Fab, V domains shown, Fab heavy chain of NVS0 (from brolucizumab); linker; TSG6 (TNF-stimulated gene 6 protein), human, LINK domain; Fab light chain of NVS0 (from brolucizumab); The LINK domain has a natural N-linked glycosylation site) VH: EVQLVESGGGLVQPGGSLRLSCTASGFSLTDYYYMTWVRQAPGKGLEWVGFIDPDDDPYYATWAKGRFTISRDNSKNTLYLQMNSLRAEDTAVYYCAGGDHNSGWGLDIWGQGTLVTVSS VL: EIVMTQSPSTLSASVGDRVIITCQASEIIHSWLAWYQQKPGKAPKLLIYLASTLASGVPSRFSGSGSGAEFTLTISSLQPDDFATYYCQNVYLASTNGANFGQGTKLTVL	0.176
NVS0, the Fab version of brolucizumab (Fab, V domains shown, as the Fab part of the heavy chain of Dm4 (LAVA1), without the GSGGG linker and the LINK domain; as the light chain of Dm4 (LAVA1); Made by converting the anti-VEGF scFv brolucizumab to a Fab format; also called untagged anti-VEGF Fab) VH: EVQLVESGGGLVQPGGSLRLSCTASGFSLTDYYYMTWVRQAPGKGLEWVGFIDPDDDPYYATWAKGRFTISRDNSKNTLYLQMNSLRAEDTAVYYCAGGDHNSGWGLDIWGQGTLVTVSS VL: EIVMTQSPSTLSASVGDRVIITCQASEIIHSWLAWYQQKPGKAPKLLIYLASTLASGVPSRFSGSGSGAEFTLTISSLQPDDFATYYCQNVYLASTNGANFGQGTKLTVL	14.2

# input for lookup
What does the record list as Kd for LAVA3, protease-resistant variant of LAVA1 (Fab, V domains shown, as the Fab part of the heavy chain of Dm4 (LAVA1); linker; TSG6, human, LINK domain (HABP), with amino acid substitutions around the observed proteolytic sites; as the light chain of Dm4 (LAVA1); The substitutions are in Supplementary Data 2) VH: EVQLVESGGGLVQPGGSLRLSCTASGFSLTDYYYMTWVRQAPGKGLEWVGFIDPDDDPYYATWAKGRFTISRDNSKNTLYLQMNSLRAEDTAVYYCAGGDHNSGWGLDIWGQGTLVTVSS VL: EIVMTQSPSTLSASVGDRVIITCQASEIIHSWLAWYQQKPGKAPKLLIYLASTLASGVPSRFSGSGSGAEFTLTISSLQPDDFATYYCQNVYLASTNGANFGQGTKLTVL ?
0.161
